Could you please report measured Kd for the items listed next?
TARGET: T1, recombinant human MCL-1ΔNΔC (amino acids 172-320) (human, UniProt Q07820 172-320)
T1 construct: also called rMCL-1; MCL-1NC
T1 sequence (Q07820 172-320 limits assumed, stated change not applied): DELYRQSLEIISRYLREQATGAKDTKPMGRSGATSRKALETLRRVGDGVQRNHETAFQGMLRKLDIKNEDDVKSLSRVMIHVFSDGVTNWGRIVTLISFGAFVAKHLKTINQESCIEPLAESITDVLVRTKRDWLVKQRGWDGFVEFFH
PROTOCOL_DESCRIPTION: fluorescence polarization (FPA), FITC-SAHB with recombinant anti-apoptotic protein [lower table]
Bridges are numbered along the chain shown (N, C = ends). Where no end group is shown, it is not given here. [ ]: non-standard residue; d: D form. The star is where a group is joined. FITC = O=C1OC2(c3ccc(O)cc3Oc3cc(O)ccc32)c2ccc(NC(=S)*)cc21; S5 = C=CCCC[C@](C)(N)C(=O)O; Nle = CCCC[C@H](N)C(=O)O

Name the recorded Kd for {FITC}-QWAREIGAQLR[S5][Nle]AD[S5]LNAQY (staple 12-16, domain: BH3) [PUMA SAHB] .
14 nM

So what's the measured Kd for this one? {FITC}-DIIRNIARHLA[S5]VGD[S5][Nle]DRSIRR (staple 12-16, domain: BH3) [BID SAHB]
50 nM

// returns reported Kd for input {FITC}-QVGRQLA[S5]IGD[S5]INRRYD (staple 8-12, also called FITC-BAK SAHB; BAK BH3 helix) [BAK SAHB]
7 nM

Request the reported Kd associated with {FITC}-ASTKKLSESLK[S5]IGD[S5]LDSN (staple 12-16, domain: BH3) [BAX SAHB]
101 nM
